log10(IC50) for Macrophage metalloelastase (Homo sapiens) - collated from the literature.
Values are log10 of IC50 in µM.

Request: Given the entry O=C(OCc1ccccc1)c1cccc(S)n1 , report its measured log10(IC50).
Response: 1.91

Request: Similarly, O=C(OCc1ccccc1)c1cccc(=O)[nH]1 ?
Response: 1.84

Request: Similarly, CCOc1ccc(OC2CCN(S(=O)(=O)C[C@@]3(C)NC(=O)NC3=O)CC2)cc1 ?
Response: -2.70

Request: Similarly, O=C(OCc1cc(F)ccc1F)c1cccc(S)n1 ?
Response: 1.23

Request: Similarly, COc1ccc(C2=NNC3(S2)C(=O)N(Cc2ccccc2)c2ccccc23)cc1 (stereo unspecified) ?
Response: 0.75
